Biological target: ABCG2 (Homo sapiens, UniProt Q9UNQ0)
Sequence (Q9UNQ0 1-655): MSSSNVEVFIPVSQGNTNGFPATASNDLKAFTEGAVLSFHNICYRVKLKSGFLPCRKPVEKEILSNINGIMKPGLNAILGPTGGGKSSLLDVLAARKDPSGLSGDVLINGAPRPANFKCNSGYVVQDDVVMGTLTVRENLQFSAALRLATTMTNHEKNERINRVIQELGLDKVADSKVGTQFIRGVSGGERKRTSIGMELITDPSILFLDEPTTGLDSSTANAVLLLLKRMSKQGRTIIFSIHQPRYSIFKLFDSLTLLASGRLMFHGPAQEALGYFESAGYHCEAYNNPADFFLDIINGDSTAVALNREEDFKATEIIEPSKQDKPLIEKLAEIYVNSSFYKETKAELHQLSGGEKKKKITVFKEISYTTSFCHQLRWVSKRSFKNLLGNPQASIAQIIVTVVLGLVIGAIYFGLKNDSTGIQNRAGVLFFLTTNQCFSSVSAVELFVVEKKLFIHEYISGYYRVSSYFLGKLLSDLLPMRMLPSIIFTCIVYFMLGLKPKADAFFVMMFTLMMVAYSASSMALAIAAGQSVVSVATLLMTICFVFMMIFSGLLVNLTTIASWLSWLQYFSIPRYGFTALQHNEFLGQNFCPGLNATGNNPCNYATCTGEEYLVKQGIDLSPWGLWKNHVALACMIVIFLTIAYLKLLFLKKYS
Test: biochemical
quantity-measured: EC50

Lab entry: ABCG2 (Homo sapiens, UniProt Q9UNQ0) assay, compound `CC(C)(CNC(=O)c1cccc(-c2noc(C(F)(F)F)n2)c1)c1coc(-c2ccccc2)n1` , EC50 = ~400 nM

Numbers sourced from paper PMC6981391.
